This collection of values is drawn from paper PMC9623233.

- assay-text: CT900 plasma pharmacokinetics, noncompartmental analysis
- Type: in vivo, human
- experimental-parameters: human, plasma, iv, 2 mg/m2, AUClast, 2 mg/m^2 i.v., Cycle 1 Day 1; Range, N 4
measurement-kind: AUC(0-t)

// recorded AUC(0-t) for C#CCN(c1ccc(C(=O)N[C@@H](CCC(=O)N[C@H](CCC(=O)O)C(=O)O)C(=O)O)cc1)[C@H]1CCc2cc3nc(CO)[nH]c(=O)c3cc21 [CT900] : 2520 to 12800 ng·h/mL

====

- assay-text: CT900 plasma pharmacokinetics, noncompartmental analysis
- Format: in vivo, human
- experimental-parameters: human, plasma, iv, 1 mg/m2, AUC0-24, 1 mg/m^2 i.v., Cycle 1 Day 1; Median, N 3
measurement-kind: AUC(0-t) (ng·h/mL)
Entry rule: numbers only, all in ng·h/mL.

// recorded AUC(0-t) for C#CCN(c1ccc(C(=O)N[C@@H](CCC(=O)N[C@H](CCC(=O)O)C(=O)O)C(=O)O)cc1)[C@H]1CCc2cc3nc(CO)[nH]c(=O)c3cc21 [CT900] : 1620

====

- assay-text: CT900 plasma pharmacokinetics, noncompartmental analysis
- Type: in vivo, human
- experimental-parameters: human, plasma, iv, 12 mg/m2, AUC0-24, 12 mg/m^2 i.v., Cycle 1 Day 1; Geometric Mean, N 5
measurement-kind: AUC(0-t) (ng·h/mL)
Entry rule: numbers only, all in ng·h/mL.

// recorded AUC(0-t) for C#CCN(c1ccc(C(=O)N[C@@H](CCC(=O)N[C@H](CCC(=O)O)C(=O)O)C(=O)O)cc1)[C@H]1CCc2cc3nc(CO)[nH]c(=O)c3cc21 [CT900] : 46900

====

- assay-text: CT900 plasma pharmacokinetics, noncompartmental analysis
- Assay type: in vivo, human
- experimental-parameters: human, plasma, iv, 2 mg/m2, T max, 2 mg/m^2 i.v., Cycle 1 Day 1; Median, N 4
measurement-kind: Tmax (h)
Entry rule: numbers only, all in h.

// recorded Tmax for C#CCN(c1ccc(C(=O)N[C@@H](CCC(=O)N[C@H](CCC(=O)O)C(=O)O)C(=O)O)cc1)[C@H]1CCc2cc3nc(CO)[nH]c(=O)c3cc21 : 1

====

- assay-text: CT900 plasma pharmacokinetics, noncompartmental analysis
- Type: in vivo, human
- experimental-parameters: human, plasma, iv, 1 mg/m2, Cl, 1 mg/m^2 i.v., Cycle 1 Day 1; Median, N 3
measurement-kind: clearance (mL/min)
Entry rule: numbers only, all in mL/min.

// recorded clearance for C#CCN(c1ccc(C(=O)N[C@@H](CCC(=O)N[C@H](CCC(=O)O)C(=O)O)C(=O)O)cc1)[C@H]1CCc2cc3nc(CO)[nH]c(=O)c3cc21 : 20.8

====

- assay-text: CT900 plasma pharmacokinetics, noncompartmental analysis
- Type: in vivo, human
- experimental-parameters: human, plasma, iv, 6 mg/m2, T max, 6 mg/m^2 i.v., Cycle 1 Day 1; Mean, N 1
measurement-kind: Tmax (h)
Entry rule: numbers only, all in h.

// recorded Tmax for C#CCN(c1ccc(C(=O)N[C@@H](CCC(=O)N[C@H](CCC(=O)O)C(=O)O)C(=O)O)cc1)[C@H]1CCc2cc3nc(CO)[nH]c(=O)c3cc21 : 1

====

- assay-text: CT900 plasma pharmacokinetics, noncompartmental analysis
- Assay type: in vivo, human
- experimental-parameters: human, plasma, iv, 2 mg/m2, AUClast, 2 mg/m^2 i.v., Cycle 1 Day 1; Mean, N 4
measurement-kind: AUC(0-t) (ng·h/mL)
Entry rule: numbers only, all in ng·h/mL.

// recorded AUC(0-t) for C#CCN(c1ccc(C(=O)N[C@@H](CCC(=O)N[C@H](CCC(=O)O)C(=O)O)C(=O)O)cc1)[C@H]1CCc2cc3nc(CO)[nH]c(=O)c3cc21 [CT900] : 6860
